test.name: Toxicity in 48 hrs post fertilized zebrafish embryo assessed as survival after 24 hrs by inverted microscopic analysis
Format: organism-based, Danio rerio
study.conditions: in vivo, read-out: MTD
Non-standard residues stand in square brackets, D forms with d. Residues, ends and D or L forms follow the SMILES beside them. *: point of attachment. NMeF = CN[C@@H](Cc1ccccc1)C(=O)O; Oct(7)enoyl = C=CCCCCCC(=O)*; NMeV = CN[C@H](C(=O)O)C(C)C; NMeA = CN[C@@H](C)C(=O)O
measure: MNTC at 24 h

Lab book: MNTC at 24 h of C=CCCCCCC(=O)N(C)[C@H](C(=O)N(C)[C@H](C(=O)N(C)[C@H](C(=O)N(C)[C@@H](C)C(=O)N(C)[C@@H](Cc1ccccc1)C(=O)OC)C(C)C)C(C)C)C(C)C ({Oct(7)enoyl}-[NMeV][NMeV][NMeV][NMeA][NMeF]-OMe) noted as 168 µM
